Attribution: PubChem BioAssay (NCI)

# key: entry, value: TGI
# System: A549 NSCLC
# measurement.description: NCI tumour cell line growth inhibition, 48 h

Past entries and their recorded results:
In [3]: df
Out[3]:
                                   compound  measured_result
0  O=C(CC(C(=O)c1ccc(F)cc1)c1ccsc1)c1cccs1 (configuration not stated)         > 100 µM
1  CC(=O)NNc1nc(C)c(C(=O)NNC(=O)C(=O)Nc2c(C)cccc2C(C)C)s1         > 100 µM
2  O=C(CNC(=O)c1ccccc1)Oc1c(Cl)c(Cl)c(Cl)c(Cl)c1Cl         > 100 µM
3  S=c1sc2c(s1)SCc1cccc(n1)CSc1sc(=S)sc1SCc1cccc(n1)CS2         > 100 µM

Look up TGI of CC=C(CBr)CCC(Br)C(C)(C)Cl (mixture of isomers) and report it. > 10 µM

Look up TGI of NC(=Nc1ccc(S(=O)(=O)Nc2cnc3ccccc3n2)cc1)/N=C(/N)Nc1ccc(Br)cc1 and report it. > 100 µM

Look up TGI of COc1ccc(-c2cc(=O)oc3ccc(Cl)cc23)cc1F and report it. > 100 µM

Look up TGI of C[C@H](NC1=CC(=O)C(N[C@@H](C)[C@H](O)c2ccccc2)=CC1=O)[C@H](O)c1ccccc1 and report it. > 100 µM

Look up TGI of CN(C)CCCNC(=O)c1c(-c2cccnc2)cnc2ccccc12 and report it. > 100 µM

Look up TGI of CC1(c2ccccc2)N=C(C(N)=O)c2[nH]cnc2N1 (configuration not stated) and report it. > 100 µM

###

# System: A498 renal
# measurement.description: NCI tumour cell line growth inhibition, 48 h
# key: entry, value: TGI

>>> print(df.to_string())
                                   compound  assay_endpoint  measured_result
0  Cc1ccc(S(=O)(=O)NNC(=O)Nc2ccc(Cl)cc2)cc1             TGI         > 100 µM
1  CCOc1ccc(Nc2nc(C)c(C(=O)/C=C/c3ccc(Cl)cc3Cl)s2)cc1             TGI          50.5 µM
2  COc1ccc(-n2c(N)c(C#N)c(C#N)c2-c2cccc([N+](=O)[O-])c2)cc1             TGI         > 100 µM
3  CN1CCC(SC2Cc3cc(Cl)ccc3Sc3ccccc32)CC1 (stereo unspecified)             TGI          31.6 µM

Report value: TGI, system: A498 renal, compound: CC(C)=CC1CC(=O)C1(C)Sc1ccccc1 (stereo unspecified) > 100 µM

Report value: TGI, system: A498 renal, compound: CCO.CCO.Oc1ccc(Nc2ncns2)cc1.Oc1ccc(Nc2ncns2)cc1.[Ti] 74.9 µM

Report value: TGI, system: A498 renal, compound: CN(C)c1ccc(/C=C2\C[C@H]3[C@@H]4CCc5cc(OCCN6CCCC6)ccc5[C@H]4CC[C@]3(C)[C@H]2O)cc1 34.9 µM

Report value: TGI, system: A498 renal, compound: Cc1ccc(/C=C2\COc3ccc(O)c(O)c3C2=O)cc1 1.95 µM

Report value: TGI, system: A498 renal, compound: OCCN(CCO)CCn1cnc2c(NCc3ccccc3)ncnc21 > 100 µM

Report value: TGI, system: A498 renal, compound: CC(C)(C)OC(=O)NC(Cc1ccc(OCc2ccccc2)cc1)C(=O)NC(COCc1ccccc1)C(=O)Oc1c(Cl)c(Cl)c(Cl)c(Cl)c1Cl (stereo unspecified) 53.2 µM

Report value: TGI, system: A498 renal, compound: O=C1CSC(c2cccc([N+](=O)[O-])c2)N1c1ccc(-c2ccc(-n3c(-c4ccccc4)nc4ccccc4c3=O)cc2)cc1 (stereo unspecified) > 100 µM

Report value: TGI, system: A498 renal, compound: CC1(c2ccccc2)N=C(C(N)=O)c2[nH]cnc2N1 (stereo unspecified) > 100 µM
